Recorded CC50 values for a group of compounds are listed next.
experiment: in vitro; format: cell-based; conditions: African green monkey, CC50

compound: COc1cc(NC(C(=O)c2c[nH]c3cc(OC)c(F)cc23)c2ccc(Cl)cc2OC)cc(S(C)(=O)=O)c1 (single isomer, unassigned)
rel: =
CC50 (µM): 9.2

compound: COc1cc(NC(C(=O)c2c[nH]c3c(C)c(F)ccc23)c2ccc(Cl)cc2OC)cc(S(C)(=O)=O)c1 (single isomer, unassigned)
rel: =
CC50 (µM): 7.3

compound: COc1cc(NC(C(=O)c2c[nH]c3c(C)c(OC)ccc23)c2ccc(Cl)cc2OC)cc(S(C)(=O)=O)c1 (single isomer, unassigned)
rel: >
CC50 (µM): 92

compound: COc1cc(NC(C(=O)c2c[nH]c3cc(F)ccc23)c2ccc(Cl)cc2OC)cc(S(C)(=O)=O)c1 (single isomer, unassigned)
rel: =
CC50 (µM): 8

compound: COc1cc(NC(C(=O)c2c[nH]c3cc(OC)c(C)cc23)c2ccc(Cl)cc2OC)cc(S(C)(=O)=O)c1 (single isomer, unassigned)
rel: =
CC50 (µM): 4.3

----------
system: DENV-2 strain NGC; assay: Tetravalent RT-qPCR assay Protocol B, serotype 2; type: cell-based; conditions: Dengue virus, DENV2, 96 h, RT-qPCR serotype 2 NGC-Tongalike, 4 days
Overview of reported EC50 across a group of compounds:

compound: COc1cc(NC(C(=O)c2c[nH]c3c(C)c(OC)ccc23)c2ccc(Cl)cc2OC)cc(S(C)(=O)=O)c1 (single isomer, unassigned) [Compound 6A]
targetOrSystem: DENV-2 strain NGC
EC50: < 0.24 nM
//
compound: COc1cc(NC(C(=O)c2c[nH]c3c(C)c(F)ccc23)c2ccc(Cl)cc2OC)cc(S(C)(=O)=O)c1 (single isomer, unassigned) [Compound 2A]
targetOrSystem: DENV-2 strain NGC
EC50: < 0.24 nM
//
compound: COc1cc(NC(C(=O)c2c[nH]c3cc(OC)c(F)cc23)c2ccc(Cl)cc2OC)cc(S(C)(=O)=O)c1 (single isomer, unassigned) [Compound 5A]
targetOrSystem: DENV-2 strain NGC
EC50: < 0.23 nM
//
compound: COc1cc(NC(C(=O)c2c[nH]c3cc(OC)c(C)cc23)c2ccc(Cl)cc2OC)cc(S(C)(=O)=O)c1 (single isomer, unassigned) [Compound 4A]
targetOrSystem: DENV-2 strain NGC
EC50: 0.32 nM
//
compound: COc1cc(NC(C(=O)c2c[nH]c3cc(F)ccc23)c2ccc(Cl)cc2OC)cc(S(C)(=O)=O)c1 (single isomer, unassigned) [Compound 1A]
targetOrSystem: DENV-2 strain NGC
EC50: < 0.27 nM

----------
test system: uninfected quiescent Vero-B or Vero-M cells; experiment: in vitro; format: cell-based; details: African green monkey

compound: COc1cc(NC(C(=O)c2c[nH]c3c(C)c(OC)ccc23)c2ccc(Cl)cc2OC)cc(S(C)(=O)=O)c1 (single isomer, unassigned) [Compound 6A]
rel: >
CC50 (µM): 92
//
compound: COc1cc(NC(C(=O)c2c[nH]c3cc(F)ccc23)c2ccc(Cl)cc2OC)cc(S(C)(=O)=O)c1 (single isomer, unassigned) [Compound 1A]
rel: =
CC50 (µM): 11
//
compound: COc1cc(NC(C(=O)c2c[nH]c3c(C)c(F)ccc23)c2ccc(Cl)cc2OC)cc(S(C)(=O)=O)c1 (single isomer, unassigned) [Compound 2A]
rel: =
CC50 (µM): 11
//
compound: COc1cc(NC(C(=O)c2c[nH]c3cc(OC)c(C)cc23)c2ccc(Cl)cc2OC)cc(S(C)(=O)=O)c1 (single isomer, unassigned) [Compound 4A]
rel: =
CC50 (µM): 6.6

----------
test system: DENV-4 strain SG/06K2270DK1/2005 (Eden); experiment: Tetravalent RT-qPCR assay Protocol A, serotype 4 EDEN; format: cell-based; conditions: Dengue virus, DENV4, Vero, 72 h
pEC50: −log10 of the molar value.
Threshold check on pEC50: at or above 9 gives yes (1), strictly below gives no (0).

compound: COc1cc(NC(C(=O)c2c[nH]c3c(C)c(OC)ccc23)c2ccc(Cl)cc2OC)cc(S(C)(=O)=O)c1 (single isomer, unassigned) [Compound 6A]
targetOrSystem: DENV-4 strain SG/06K2270DK1/2005 (Eden)
assignedClass: yes (1)
--
compound: COc1cc(NC(C(=O)c2c[nH]c3cc(F)ccc23)c2ccc(Cl)cc2OC)cc(S(C)(=O)=O)c1 (single isomer, unassigned) [Compound 1A]
targetOrSystem: DENV-4 strain SG/06K2270DK1/2005 (Eden)
assignedClass: no (0)
--
compound: COc1cc(NC(C(=O)c2c[nH]c3cc(OC)ccc23)c2ccc(Cl)cc2OC)cc(S(C)(=O)=O)c1 (single isomer, unassigned) [Compound 3A]
targetOrSystem: DENV-4 strain SG/06K2270DK1/2005 (Eden)
assignedClass: no (0)
--
compound: COc1cc(NC(C(=O)c2c[nH]c3cc(OC)c(F)cc23)c2ccc(Cl)cc2OC)cc(S(C)(=O)=O)c1 (single isomer, unassigned) [Compound 5A]
targetOrSystem: DENV-4 strain SG/06K2270DK1/2005 (Eden)
assignedClass: no (0)

----------
Test system: DENV-2 16681 strain
Assay: DENV-2 antiviral assay (eGFP fluorescence, Vero cells)
Type: cell-based, Dengue virus
Details: DENV-2 16681 eGFP, MOI 0.5, 3 days
Protocol: The antiviral activity of all the compounds of the invention was tested against the DENV-2 16681 strain which was labeled with enhanced green fluorescent protein (eGPF; Table 1). […] At the day of the read out, the eGFP fluorescence was measured using an automated fluorescence microscope at 488 nm (blue laser). Using an in-house LIMS system, inhibition dose response curves for each compound were calculated and the half maximal effective concentration (EC50) was determined. […]
propertyMeasured: EC50 (nM)

compound: COc1cc(NC(C(=O)c2c[nH]c3c(C)cc(OC(F)(F)F)cc23)c2ccc(Cl)cc2OC)cc(S(C)(=O)=O)c1 (single isomer, unassigned) [Compound 11A]
resultValue: 0.085
--
compound: COc1cc(NC(C(=O)c2c[nH]c3ccc(C(F)(F)F)cc23)c2ccc(Cl)cc2OC)cc(S(C)(=O)=O)c1 (single isomer, unassigned) [Compound 8B]
resultValue: 0.069
--
compound: COc1cc(NC(C(=O)c2c[nH]c3c(C)c(OC)ccc23)c2ccc(Cl)cc2OC)cc(S(C)(=O)=O)c1 (single isomer, unassigned) [Compound 6B]
resultValue: 19
--
compound: COc1cc(NC(C(=O)c2c[nH]c3cc(OC)c(OC(F)(F)F)cc23)c2ccc(Cl)cc2OC)cc(S(C)(=O)=O)c1 (single isomer, unassigned) [Compound 10A]
resultValue: 0.12
--
compound: COc1cc(NC(C(=O)c2c[nH]c3ccc(C(F)(F)F)cc23)c2ccc(Cl)cc2OC)cc(S(C)(=O)=O)c1 (single isomer, unassigned) [Compound 8A]
resultValue: 3

----------
system: DENV-2 16681 strain; assay: DENV-2 antiviral assay (eGFP fluorescence, Vero cells); format: cell-based, Dengue virus; settings: DENV-2 16681 eGFP, MOI 0.5, 3 days
pEC50: −log10 of the molar value.

compound: COc1cc(NC(C(=O)c2c[nH]c3cc(OC)ccc23)c2ccc(Cl)cc2OC)cc(S(C)(=O)=O)c1 (single isomer, unassigned) [Compound 3A]
pEC50: 9.60
--
compound: COc1cc(NC(C(=O)c2c[nH]c3cc(F)c(C)cc23)c2ccc(Cl)cc2OC)cc(S(C)(=O)=O)c1 (single isomer, unassigned) [Compound 7A]
pEC50: 7.89
--
compound: COc1cc(NC(C(=O)c2c[nH]c3cc(F)ccc23)c2ccc(Cl)cc2OC)cc(S(C)(=O)=O)c1 (single isomer, unassigned) [Compound 1B]
pEC50: 7.92
--
compound: COc1cc(NC(C(=O)c2c[nH]c3cc(OC)c(OC(F)(F)F)cc23)c2ccc(Cl)cc2OC)cc(S(C)(=O)=O)c1 (single isomer, unassigned) [Compound 10B]
pEC50: 8.41
--
compound: COc1cc(NC(C(=O)c2c[nH]c3ccc(OC(F)(F)F)cc23)c2ccc(Cl)cc2OC)cc(S(C)(=O)=O)c1 (single isomer, unassigned) [Compound 9B]
pEC50: 8.42
--
compound: COc1cc(NC(C(=O)c2c[nH]c3cc(OC)ccc23)c2ccc(Cl)cc2OC)cc(S(C)(=O)=O)c1 (single isomer, unassigned) [Compound 3B]
pEC50: 8.42
--
compound: COc1cc(NC(C(=O)c2c[nH]c3cc(F)ccc23)c2ccc(Cl)cc2OC)cc(S(C)(=O)=O)c1 (single isomer, unassigned) [Compound 1A]
pEC50: 9.59
--
compound: COc1cc(NC(C(=O)c2c[nH]c3cc(OC)c(C)cc23)c2ccc(Cl)cc2OC)cc(S(C)(=O)=O)c1 (single isomer, unassigned) [Compound 4A]
pEC50: 9.57
--
compound: COc1cc(NC(C(=O)c2c[nH]c3ccc(OC(F)(F)F)cc23)c2ccc(Cl)cc2OC)cc(S(C)(=O)=O)c1 (single isomer, unassigned) [Compound 9A]
pEC50: 10.17
--
compound: COc1cc(NC(C(=O)c2c[nH]c3c(C)c(F)ccc23)c2ccc(Cl)cc2OC)cc(S(C)(=O)=O)c1 (single isomer, unassigned) [Compound 2A]
pEC50: 9.59
--
compound: COc1cc(NC(C(=O)c2c[nH]c3cc(OC)c(F)cc23)c2ccc(Cl)cc2OC)cc(S(C)(=O)=O)c1 (single isomer, unassigned) [Compound 5A]
pEC50: 9.39

meta.source: patent US12172959B2
